Measured viscosity by item
# EXPERIMENTAL_DETAILS: xn = mol fraction of the nth substance listed
# CONDITION_LABEL: 323.15 K; 100 kPa; Liquid; Concentric cylinders viscometry; x2 = 0.25
Provide the reading as a plain figure in mPa·s.

Guide cases for viscosity, answers given:
Q. Which viscosity value belongs to CCCCn1cc[n+](C)c1.O=S(=O)([O-])C(F)(F)F [1-butyl-3-methylimidazolium trifluoromethanesulfonate] + CCCC[n+]1ccn(C)c1.O=S(=O)([N-]S(=O)(=O)C(F)(F)F)C(F)(F)F ?
A. 27.21

Q. Please look up its viscosity: CCCCn1cc[n+](C)c1.COP(=O)([O-])OC [1-butyl-3-methyl-1H-imidazolium dimethylphosphate] + CCCC[n+]1ccn(C)c1.O=S(=O)([N-]S(=O)(=O)C(F)(F)F)C(F)(F)F
A. 98.92

Q. Which viscosity value is on record for CC(=O)[O-].CCCCn1cc[n+](C)c1 [1-butyl-3-methylimidazolium acetate] + CCCC[n+]1ccn(C)c1.O=S(=O)([N-]S(=O)(=O)C(F)(F)F)C(F)(F)F ?
A. 49.57

Q. Recorded viscosity for CCCCn1cc[n+](C)c1.F[P-](F)(F)(F)(F)F [1-butyl-3-methylimidazolium hexafluorophosphate] + CCCC[n+]1ccn(C)c1.O=S(=O)([N-]S(=O)(=O)C(F)(F)F)C(F)(F)F , please?
A. 47.96

Next, consider the following molecule.
Q. Which viscosity value belongs to CCCCn1cc[n+](C)c1.N#C[S-] [1-butyl-3-methylimidazolium thiocyanate] + CCCC[n+]1ccn(C)c1.O=S(=O)([N-]S(=O)(=O)C(F)(F)F)C(F)(F)F ?
A. 23.79
